All figures here come from patent US7276519B2.

Quick reference for melting point among some compounds
measured_endpoint: melting point

1) N#Cc1cnc2ccsc2c1Nc1ccc(Cl)cc1Cl = 198 to 200 °C
2) CCOc1cc(Nc2c(C#N)cnc3cc(I)sc23)c(Cl)cc1Cl = 232 to 233 °C
3) CCN1CCN(Cc2ccc(-c3cc4ncc(C#N)c(Nc5cc(OC)c(Cl)cc5Cl)c4s3)cc2)CC1 = 198 to 200 °C
4) COc1cc(Nc2c(C#N)cnc3cc(-c4ccc(CN(C)C)cc4)sc23)c(Cl)cc1Cl = 224 to 225 °C
5) COCCNCc1ccc(-c2cc3ncc(C#N)c(Nc4cc(OC)c(Cl)cc4Cl)c3s2)cc1 = 162 to 164 °C
6) COc1cc(Nc2c(C#N)cnc3cc(/C=C/c4ccccc4)sc23)c(Cl)cc1Cl = 236 to 238 °C

---

Quick reference for melting point among some compounds
measured_endpoint: melting point

1. CCN(CC)Cc1ccc(-c2cc3ncc(C#N)c(Nc4cc(OC)c(Cl)cc4Cl)c3s2)cc1 = 160 to 162 °C
2. COc1cc(Nc2c(C#N)cnc3cc(C#Cc4ccncc4)sc23)c(Cl)cc1Cl = 221 to 223 °C
3. CCN(CC)CC#Cc1cc2ncc(C#N)c(Nc3ccc(Sc4nccn4C)c(Cl)c3)c2s1 = 190 to 194 °C
4. COc1cc(Nc2c(C#N)cnc3cc(-c4cccc(CN(C)C)n4)sc23)c(Cl)cc1Cl = 221 to 223 °C

---

Quick reference for IC50 among some compounds
System: Rat2 fibroblasts stably transformed with v-Src/Hu c-Src fusion gene
Experiment: Anchorage independent Src-transformed fibroblast proliferation assay
Format: cell-based, rat
Conditions: Rattus norvegicus, Rat2, Table 3; read-out: Src Cells IC50 μM or % inhib at 10 μM (IC50 values)
measured_endpoint: IC50

1. COc1cc(Nc2c(C#N)cnc3cc(-c4ccn(CCN(C)C)c4)sc23)c(Cl)cc1Cl = > 10 µM
2. COc1cc(Nc2c(C#N)cnc3cc(C#Cc4ccc(CN(C)C)cn4)sc23)c(Cl)cc1Cl = > 10 µM
3. COc1cc(Nc2c(C#N)cnc3cc(-c4ccc(CN5CCN(c6ccccn6)CC5)cc4)sc23)c(Cl)cc1Cl = > 10 µM
